These measurements were taken from patent US6815443B2.

Please provide measured % Inhibition gabapentin, 10 μmole for the entries that follow.
# Tested on: gabapentin binding site
# test-description: gabapentin binding assay (displacement of gabapentin from its binding site)
Just the number in %, nothing appended.

input: In one line, give reported % Inhibition gabapentin, 10 μmole of the entry CC(=Cc1ccccc1)C(O)(c1ccccc1)C(C)CN(C)C (stereo not shown) .
output: 37

input: In one line, give reported % Inhibition gabapentin, 10 μmole of the entry COc1ccc(C2(O)C(=Cc3cccc(OC)c3)CCCCC2CN(C)C)cc1 (stereo not shown) .
output: 43

input: In one line, give reported % Inhibition gabapentin, 10 μmole of the entry COc1cccc(C=C2CCCCC(CN(C)C)C2(O)c2ccc(Cl)cc2)c1 (stereo not shown) .
output: 44

input: In one line, give reported % Inhibition gabapentin, 10 μmole of the entry CC(=Cc1ccccc1)C(O)(Cc1cccc(Cl)c1)C(C)CN(C)C (stereo not shown) .
output: 46

input: In one line, give reported % Inhibition gabapentin, 10 μmole of the entry COc1cccc(CC(O)(C(C)=Cc2ccc(Cl)cc2)C(C)CN(C)C)c1 (stereo not shown) .
output: 40

input: In one line, give reported % Inhibition gabapentin, 10 μmole of the entry CC(=Cc1ccccc1)C(O)(Cc1cccc(C)c1)C(C)CN(C)C (stereo not shown) .
output: 30

input: In one line, give reported % Inhibition gabapentin, 10 μmole of the entry COc1cccc(CC(O)(C(C)=Cc2ccc(F)cc2)C(C)CN(C)C)c1 (stereo not shown) .
output: 47
